Target or system: SSTR2 (Rattus norvegicus)
Construct: host or cells: AR42J cells
Sequence (P30680 whole entry): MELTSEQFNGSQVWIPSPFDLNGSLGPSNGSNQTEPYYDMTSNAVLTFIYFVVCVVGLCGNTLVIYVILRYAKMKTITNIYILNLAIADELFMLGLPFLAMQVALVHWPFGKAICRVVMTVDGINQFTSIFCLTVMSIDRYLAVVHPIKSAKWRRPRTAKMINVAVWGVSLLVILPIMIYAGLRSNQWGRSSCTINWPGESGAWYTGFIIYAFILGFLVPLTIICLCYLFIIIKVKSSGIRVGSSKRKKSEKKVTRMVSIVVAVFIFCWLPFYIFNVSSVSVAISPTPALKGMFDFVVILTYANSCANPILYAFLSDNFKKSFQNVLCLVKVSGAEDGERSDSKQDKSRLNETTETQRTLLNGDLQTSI
Test method notes: Competitive cell-binding assay on AR42J cells with 125I-C1 as competitive ligand
Protocol: AR42J cells (ATCC) were maintained in RPMI-1640 medium (Gibco) supplemented with 15% fetal bovine serum (Gibco) and 1% penicillin-streptomycin (BI) at 37° C. in a humidified incubator with 5% CO2. […] The binding affinities of test compounds were determined by a competitive cell-binding assay using ^125I-C1 and ^125I-C3 as the competitive ligand. […] The filters were collected, and their radioactivity were individually measured by γ counter (2480 WIZARD2, PerkinElmer). […]
Measure: Relative Binding Affinity SSTR2
Numbers only.

Exam item: Fill in Relative Binding Affinity SSTR2 for record C[C@@H](O)[C@H](NC(=O)[C@@H]1CSSC[C@H](NC(=O)[C@@H](Cc2ccccc2)NC(=O)COCCOCCNC(=O)[C@H](CCCCNC(=O)CCC(C(=O)O)N2CCN(CC(=O)O)CCN(CC(=O)O)CCN(CC(=O)O)CC2)NC(=O)COCCOCCNC(=O)c2cccc(NC(=O)N[C@@H]3CN(C4CCCCC4)c4ccccc4N(CC(=O)C(C)(C)C)C3=O)c2)C(=O)N[C@@H](Cc2ccc(O)cc2)C(=O)N[C@H](Cc2c[nH]c3ccccc23)C(=O)N[C@@H](CCCCN)C(=O)N[C@@H]([C@@H](C)O)C(=O)N1)C(=O)O (stereo partly shown)
Marked response: 4.75
